- assay.details: yeast display, Sf9 membrane polyspecificity reagent, FACS + sequencing; frameworks hold sequencing errors
assay.readout: polyreactivity (PSR sort gate)

QVQLVESGGGLVQAGGSLRLSCAASGFTFTRNAMGWYRQAPGKERELVAAISGSGGSTYYADSVKGRFTISRDNAKNTVYLQMNSLKPEDTAVYYCAAPLPWAYAYDYWGQGTQVTVSS ... high polyreactivity
QVQLVESGGGLVQAGGSLRLSCAASGSIFSWNAMGWYRQAPGKERELVAAITSGGSTYYADSVKGRFTISRDNAKNTVYLQMNSLKPEDTAVYYCGWTYHYHRESWGQGTQVTVSS ... low polyreactivity
QVQLVESGGGLVQAGGSLRLSCAASGFTFGRNAMGWYRPAPGKEMELDATISKSGGSTYYEDSVKGRFTISRDNAKNTVYLQMYSLKPEDSAVYYCAARSRRLPGDYWGQATQVTVSS ... low polyreactivity
QVQLVESGGGLVQAGGSLRLSCAASGFTFGDYAMGWYRQAPGIERELVAAIRSGGSTNYADSVKGRFTISRDNAKNTVYLQMNSLNPEDTAVYYCAAEWPHGQGAWSFFCRDSWGQGTQVTVSS ... low polyreactivity
QVQLVETGGGLVQAGGSLRLSCAASGITFAYNTMGWYIQAPGKERELVAGISFSGASTYYADSVKGRFTISRDYAKNTVYLQMNSLKPEDTAVYDCAAPRWVANQYREYDYWGQGTQVTVSS ... high polyreactivity
QVQLVDSGGRLVQAGGSLRLSCAASGRIFVNNAMRWYRQAPGKERELVAAITRGGSTYYADSVKGRFTLSRDNAKNTVYLQMNSLKPEDTAVYYCDSDYQRNDFRWYDYWGQGTHVTVSS ... low polyreactivity
QVQLVESGAGLVQAGGSLRVSCAASGSIFSYYTMGWYRQPPGKERELVAAITYRGGSTYYADSVKGRFTISRDNAKNTVYLQRNSLKPEDTAVYYCAARTRNGAGYYWGQGTQVTVSS ... high polyreactivity
QVQLVESGGGLVQAGGSLRLSCAASGRIFAFNVMGWYRQAPGKEREMVAAISTRDGSTYYADSVKGRFTISRDNAKNTVYLQMNSLIPEDTAVYYCNAVVRYYDWGYWDYDYWGQGTQVTVSS ... low polyreactivity
QVQLVESGGGLVQAGGSLRLSCAASGRTFSKYTMGWYIQAPGKERELVAAISYSGGSTYYADSVKGRFTISRDNAKNTVYLKMNSLKPEDTAVYYCAARASTYKYYYWGQGTQVTVSA ... high polyreactivity
QVQLVESGGGLVQAGVSLRLSCAATGFPLQVYDMGWYRQAPGKEMELVADISGSGDSTNYADSVKGRFTISRDNAKNSVYLQMNSLKPEDTAVYYCAAEVRGGYYGYDYWGQGTQVTVSS ... low polyreactivity

stdin: Would you kindly share the measured polyreactivity (PSR sort gate) for `QVQLVESVGGLVQAGGSLRLSCAASGFIFYSNAMGWYRKAPGKERELVAAISRSGGSTYYADSVKGRFTISRDNAKNTVYLQMNSLKPEDTAVYYCNVYCYDWWGYDYWGQGTQVTVSS` ?
stdout: high polyreactivity

stdin: Would you kindly share the measured polyreactivity (PSR sort gate) for `QVQLVESGGGLVQAGGSLRLSCAASGSIFSSYAMVWYRQAPGKERELVAAIDGSGGSTYADSVKGRFTISRDHAKNTVYLQMNSLKPEDTAVYYCAADSYSGRYYWWEYDYWGQGTQVTVSS` ?
stdout: low polyreactivity

stdin: Would you kindly share the measured polyreactivity (PSR sort gate) for `QVQLVESGGGLVQAGGSLRLSCAASGLPFQEYAMGWYRQAPGKEREFVAAISASGGSTYYADSVKGRFTISRDNAKNTVYLQMNSLKPEDTAVYYCNKYGTVGYGSYGYWGQGTQVTVSS` ?
stdout: high polyreactivity

stdin: Would you kindly share the measured polyreactivity (PSR sort gate) for `QVQRVESGGGLVQAGGRLRLSCAASGSIFASYDMGWYRQSRGKERELVARITFNAGSTYYADSVKGRFTISRDNAKNTVYLQMNSLKPEDTAVYYCIADYPWEYDYWGEGTQVTVSS` ?
stdout: low polyreactivity

stdin: Would you kindly share the measured polyreactivity (PSR sort gate) for `QVQLVESGGGLVQAGGSLRLSCAASGSTFGANAMGWYRQAPGKEREFVAAISRSGVRTYYADSVKGRFTISRDNAKNTVYLQMNSLKPEDTAVYYCAARFWYDYRHYDYWGQGTQVTVSS` ?
stdout: low polyreactivity

stdin: Would you kindly share the measured polyreactivity (PSR sort gate) for `QVQLVESGGGLVQAGGSLRLSCAASGFTFARYAMGWYRQAPGKEREFVAAIDKSGGSTYYADSVKGRFTISRDNAKNTVYLQMNSLKPEDTAVYYCAAVYSSYGRRYNSWGQGTQVTVSS` ?
stdout: high polyreactivity

stdin: Would you kindly share the measured polyreactivity (PSR sort gate) for `QVQLVESGGGLVQAGGSLRLSCAASGLTISRYAMGWYRQAPGKERELVAAITSIGGSTYYADSVKGRFTISRDNAKNTVYLQMNSLKPVDTAVYYCACLRCLFPGRFDYWGQSTQVTVSS` ?
stdout: high polyreactivity
